In this section, each of the binders is paired with its reported Trimeric HA Binding: RLU.
target: recombinant homotrimeric HA A/Japan/305/57 H2N2 (Influenza A virus A/Japan/305/1957(H2N2)); assay: protein microarray, purified IgG, trimeric HA; conditions: remark: other sources report otherwise
Write the answer as a number in RLU, unit excluded.

Sample answers from the record:
[[record]]
binder = "TCN-552 (5249_I23) (antibody, V domains shown) VH: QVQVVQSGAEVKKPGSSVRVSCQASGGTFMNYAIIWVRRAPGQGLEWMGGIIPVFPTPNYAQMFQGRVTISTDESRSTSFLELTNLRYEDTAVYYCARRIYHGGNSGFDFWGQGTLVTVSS VL: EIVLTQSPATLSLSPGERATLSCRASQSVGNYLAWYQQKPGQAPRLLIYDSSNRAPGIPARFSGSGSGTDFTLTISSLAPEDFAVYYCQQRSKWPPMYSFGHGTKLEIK"
meas_value = 24700

[[record]]
binder = "TCN-544 (5082_A19) (antibody, V domains shown) VH: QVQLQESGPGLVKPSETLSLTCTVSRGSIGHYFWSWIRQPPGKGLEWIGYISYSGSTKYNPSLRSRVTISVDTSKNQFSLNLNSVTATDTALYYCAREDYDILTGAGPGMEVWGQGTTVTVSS VL: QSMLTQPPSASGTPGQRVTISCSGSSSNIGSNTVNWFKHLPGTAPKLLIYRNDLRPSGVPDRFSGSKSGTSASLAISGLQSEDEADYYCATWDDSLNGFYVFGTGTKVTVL"
meas_value = 450


// below: Trimeric HA Binding: RLU requested for another binder
Could you share which Trimeric HA Binding: RLU value was measured for TCN-539 (5056_A08) (antibody, V domains shown) VH: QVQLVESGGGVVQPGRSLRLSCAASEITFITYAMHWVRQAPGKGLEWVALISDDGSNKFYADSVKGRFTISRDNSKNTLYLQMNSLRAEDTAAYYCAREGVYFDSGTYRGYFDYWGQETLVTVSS VL: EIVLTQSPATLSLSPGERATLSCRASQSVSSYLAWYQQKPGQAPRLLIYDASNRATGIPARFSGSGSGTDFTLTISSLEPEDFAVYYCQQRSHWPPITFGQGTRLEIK ? 544

Cited source for all entries: patent US20150086555A1
